Target: Menin (Homo sapiens, UniProt O00255)
Sequence (O00255 whole entry): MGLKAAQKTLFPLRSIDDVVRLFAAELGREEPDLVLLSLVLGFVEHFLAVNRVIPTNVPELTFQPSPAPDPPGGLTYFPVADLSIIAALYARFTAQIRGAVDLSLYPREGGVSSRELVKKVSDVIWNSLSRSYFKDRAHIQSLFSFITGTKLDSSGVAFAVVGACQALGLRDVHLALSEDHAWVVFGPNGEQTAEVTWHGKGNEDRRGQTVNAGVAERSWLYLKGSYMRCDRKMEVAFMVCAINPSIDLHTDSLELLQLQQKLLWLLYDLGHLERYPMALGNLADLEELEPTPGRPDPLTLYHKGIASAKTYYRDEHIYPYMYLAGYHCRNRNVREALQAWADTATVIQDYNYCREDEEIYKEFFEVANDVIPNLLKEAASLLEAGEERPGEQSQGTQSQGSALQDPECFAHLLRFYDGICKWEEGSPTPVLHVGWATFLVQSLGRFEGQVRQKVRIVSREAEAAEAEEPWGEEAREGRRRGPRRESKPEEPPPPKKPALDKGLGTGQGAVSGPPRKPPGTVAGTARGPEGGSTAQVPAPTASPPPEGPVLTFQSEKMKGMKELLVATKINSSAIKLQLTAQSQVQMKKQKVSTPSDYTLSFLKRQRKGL
Experiment: Menin-MLL Interaction Inhibitory Activity Assay
pIC50: −log10 of the molar value.
quantity: pIC50

P = CCN(C(=O)c1cc(F)ccc1Oc1cncnc1N1CC2(CCN(C[C@H]3CC[C@@]4(CCC(=O)N4)CC3)CC2)C1)C(C)C
Q = CC(C)N(C(=O)c1cc(F)ccc1Oc1nncnc1N1CC2(CCN(C[C@H]3CC[C@]4(CC3)CC(CO)(CO)C(=O)N4)CC2)C1)C(C)C
Of the pair P and Q , name the member with the lesser recorded pIC50. Answer by quoting the chosen item's label. P

Data provenance is BindingDB's records for patent US20250074910.
